Data origin, for the record: the supplement of paper PMC11865577

# System: TO-3-N3-2 (biotin conjugate)
# test_description: pull-down binding Z-score (relative to library population); higher = stronger binding
# test_conditions: RNA library: Library-2
observed_property: pull-down binding Z-score
No unit in the answer, only the number.

// below: answered sequences
GCUUGUCACACCGUUUCUAUAGAUUAGCUAAUGAGUGUGCUCAAGU; -0.356
AUCUGCAGGGCAUUGUGCUAACAGGU [hsa-mir-4681]; 0.211
UCUGAAGAAGUAGUGGAAAAUCCUACCAUACAGA [DMSMaPseq_invitro_SARS-CoV-2_Motif_122]; -0.226
CUAUGGCCCCCCUCCUCUCUGAAAGCAAGGCCACUUG [hsa-mir-8081]; 0.282
GGUGUUGUUGGAGAAGGUUCCGAAGGUCUUAAUGACAACCUUCUUGAAAUACUCC; 0.0401

Shift focus to the following entry.
**Query** Would you mind telling me what pull-down binding Z-score value was observed for CUCAGAGUAGAAAUUUACAAGAAUUUAAACCCAGGAG [DMSMaPseq_invitro_SARS-CoV-2_Motif_359] ?
**Result** -0.119

====

# Tested on: TO-N3 (biotin conjugate)
# test_description: pull-down binding Z-score (relative to library population); higher = stronger binding
# test_conditions: RNA library: Library-2
Each entry gets not satisfied if its pull-down binding Z-score stays under -0.4, and satisfied if its pull-down binding Z-score is -0.4 or above.

**Query** Confirm if pull-down binding Z-score reported for the sequence GUUCAGAGUCUGUUUUUGUCUAGC [hsa-mir-29c] is -0.4 or above.
**Result** satisfied

**Query** I'd appreciate it if you could say whether "AUCAAGACUAUUCAACCAAGGGUUGAAAAGAAAAAGCUUGAU" has pull-down binding Z-score at least equal to -0.4.
**Result** not satisfied

**Query** Does the sequence GUCCAUUAGGCUUUGUUAUGGAAACUUCUCCUGAUC [hsa-mir-635] have recorded pull-down binding Z-score that is -0.4 or more?
**Result** satisfied

**Query** For this sequence, is measured pull-down binding Z-score -0.4 or higher? UGGGAUUAUCCUA [DMSMaPseq_invitro_SARS-CoV-2_Motif_276]
**Result** satisfied

**Query** Quick check, pull-down binding Z-score >= -0.4? CUCCAGGAGGGG [IAV_invivo_PB2_1_Motif_10+IAV_invivo_PB2_1_Motif_10]
**Result** not satisfied

**Query** Exam item: decide whether the reported pull-down binding Z-score for CUAUUCAGAAAUGUGGCCUGUGAUUAG [hsa-mir-1295a] is at least -0.4.
**Result** satisfied

**Query** Item "AAACUCAAACCCGUCCUUGAUUGGCUUGAAGAGAAGUUUAAGGAAGGUGUAGAGUUU" with pull-down binding Z-score of -0.4 or above?
**Result** not satisfied

**Query** Could you verify whether the entry GGGCCUCCCUGUUCUCAGCGGUCC [IAV_invivo_PA_3_Motif_11+IAV_invivo_PA_3_Motif_11] shows pull-down binding Z-score of no less than -0.4?
**Result** satisfied

**Query** Check this sequence for pull-down binding Z-score at or above -0.4: GGGCUCAGAAUAUGACUAUGUCAUAUUCACUCAAACCACUGAAACAGCUC [SHAPE_invitro_SARS-CoV-2_Motif_328]
**Result** not satisfied

**Query** Tell me whether pull-down binding Z-score is at least -0.4 here: CAAUGAAGACAUGAAGACCCAAUGUCUUCAUUG [hsa-mir-4529]
**Result** not satisfied

====

# System: TO-3-N3-2 (biotin conjugate)
# test_description: pull-down binding Z-score (relative to library population); higher = stronger binding
# test_conditions: RNA library: Library-2
Short version: pull-down binding Z-score at least -0.2 is Y, less is N.

**Query** Exam item: decide whether the reported pull-down binding Z-score for "GCAACUUGCUGUUGUUGUUUGUAACAGUUUACUCACACCUUUUGCUCGUUGC" is at least -0.2.
**Result** N

**Query** Quick check, pull-down binding Z-score >= -0.2? "GGUCAAAUCAAUGAUAUGAUUUUAUC"
**Result** N

**Query** Is reported pull-down binding Z-score greater than or equal to -0.2 here: GAUAUGCCAUUAUGUGGGUCAUGAGGUGGUGA [hsa-mir-6864]
**Result** Y

====

# Test system: TO-N3 (biotin conjugate)
# test_description: pull-down binding Z-score (relative to library population); higher = stronger binding
# test_conditions: RNA library: Library-2
// values below are reported pull-down binding Z-score
Respond with the number and no other words.

GAUGGCACUUGUGGCUUAGUAGAAGUUGAAAAAGGCGUUUUGCCUCAACUUGAACAGCCCUAUGUGUUCAUC; -0.48
UUUGUCAUUUAAAAGUAAUGGCAAA [hsa-mir-548ae-2]; -0.203
AUCUGCAGGGCAUUGUGCUAACAGGU [hsa-mir-4681]; 0.644

**Query** Endpoint output: pull-down binding Z-score of GAUGGCUUUCCUUGAGGAAUCCCAUC [IAV_invivo_PB1_2_Motif_6+IAV_invivo_PB1_2_Motif_6] . Value?
**Result** -1.41

====

In this section, each of the sequences is paired with its reported pull-down binding Z-score.
# System: TO-3-N3 (biotin conjugate)
# test_description: pull-down binding Z-score (relative to library population); higher = stronger binding
# test_conditions: RNA library: Library-2
Form rule: numeric answer, no unit written next to it.

AGCAAGGUGCGUCGUAUCUUGCU [hsa-mir-4804]; -0.499
UAUUCGCUUUAUUGACUUCGAAUA [hsa-mir-369]; -0.0221
GCUUAUGGGGAUAUUGUGGUUGAUCUGUUCUAUCCAGAUGAC [hsa-mir-1261]; 0.283

Next:
**Query** // lookup pull-down binding Z-score for UAAACACGCUUGUUAAACAACUUAGCUCCAAUUUUGGUGCAAUUUCAAGUGUUUUA [SHAPE_invitro_SARS-CoV-2_Motif_443]
**Result** -0.82

====

# Test system: TO-N3-2 (biotin conjugate)
# test_description: pull-down binding Z-score (relative to library population); higher = stronger binding
# test_conditions: RNA library: Library-2
Class Satisfied: pull-down binding Z-score at least 0.2. Class Not satisfied: pull-down binding Z-score below 0.2.

Some solved cases for reference:
CCUGCCUGCCCUCCAGGUCAUGUUCCAGUGUCCCACAGAUGCAGCACCACGG [hsa-mir-6075]; Satisfied
UGUAAAAUGUAAUAACAUUUCUUAUGUUUAAAACACUUUACA [hsa-mir-4801]; Not satisfied
UGGGUAGGAAUAUCCUGGAUCCCCU [hsa-mir-3189]; Satisfied
GAGCUGGAAGGAGUGGGCCUGGCUC [hsa-mir-6847]; Satisfied
GGAAUAGUGCUCCUGGUUGUUUC [hsa-mir-1180]; Satisfied

**Query** Can GGGUCAGUGGCAGAGCCAGGCAGAUGCUGACCC [hsa-mir-6832] be said to have pull-down binding Z-score at or above 0.2?
**Result** Satisfied

**Query** Please check the record CACUCAGUAAAUAUUUGUUGAGUG [hsa-mir-1271] and state if its pull-down binding Z-score is at or above 0.2.
**Result** Not satisfied

**Query** Given "GACAGCAGAUAUAGUUGUC" , state whether its pull-down binding Z-score is at least 0.2.
**Result** Not satisfied

**Query** Is it the case that CUGUAUGUCCUAACAGUGCUUGUAG [hsa-mir-4794] has pull-down binding Z-score reaching or exceeding 0.2?
**Result** Satisfied

**Query** Assess whether reported pull-down binding Z-score for AGGUAGUGUUUAGUUAUCUACU [hsa-mir-20a] sits at 0.2 or higher.
**Result** Not satisfied

====

# Test system: TO-N3-2 (biotin conjugate)
# test_description: pull-down binding Z-score (relative to library population); higher = stronger binding
# test_conditions: RNA library: Library-2
observed_property: pull-down binding Z-score
Lab note: write the figure by itself, no unit.

AAAUAAGCUCCAUAUCAAUGAGAAUUUCAAUGGGAUUAUGUG [hsa-mir-4791]; 0.0926
GGAAGACCUUAAAUUCCCUCGAGGACAAGGCGUUCC; -0.19
CAGACUGUCUUCCCAAAUAGCCUG [hsa-mir-4772]; -0.223

**Query** Entry GAGGGGCAUGCACUGUGUUCACCCUG [hsa-mir-134] : reported pull-down binding Z-score = ?
**Result** 0.807

====

# System: G-clamp-N3 (biotin conjugate)
# test_description: pull-down binding Z-score (relative to library population); higher = stronger binding
# test_conditions: RNA library: Library-1 (pre-miRNA loops + repeats)
Listed here are sequences together with their documented pull-down binding Z-score.
Just the number, please.

AGAAGAACU [hsa-mir-378j]; -0.205

**Query** Which pull-down binding Z-score is listed for CUCAUUGUUGAAUGGAAUGAGAU [hsa-mir-3145] ?
**Result** 2.58

**Query** Bench note: what pull-down binding Z-score did GAGGUCUUCCCAUGCUAAGAAGUCCUC [hsa-mir-2116] show?
**Result** -0.641

**Query** Endpoint output: pull-down binding Z-score of GACUUUUCUAUUUUCCAAAAGC [hsa-mir-423] . Value?
**Result** -0.657

**Query** Query: pull-down binding Z-score; subject: AGAUGUGUUUCCAUUCCACUAUCAUAAU [hsa-mir-365a]
**Result** -0.718

**Query** Param item = AAUCCCAGCACUUUGGGAG [hsa-mir-3929] ; retrieve measured pull-down binding Z-score.
**Result** 0.566

**Query** Look up pull-down binding Z-score for this sequence: UUGUUGUUAUUACU [hsa-mir-378d-1]
**Result** -0.945
